Test system: MDA-MB-231 cells
protocolText: Standalone cytotoxicity, MTT assay, MDA-MB-231
Format: cell-based
appliedConditions: Homo sapiens; MDA-MB-231, 96 hours, MTT; read-out: IC80 (μM ± standard Deviation)
testReadout: IC80 (µM)
Record the value in µM, omitting the unit from your answer.

Which IC80 value belongs to CC[C@H](NC)C(=O)N[C@@H]1C(=O)N2[C@@H](CC[C@@H]1CCN)CC[C@H]2C(=O)NC(c1ccccc1)c1ccccc1 [Compound 38d] ?
14.8

Which IC80 value is on record for CC[C@H](N)C(=O)N[C@@H]1C(=O)N2[C@@H](CC[C@@H]1CCN)CC[C@H]2C(=O)NC(c1ccccc1)c1ccccc1 [Compound 38a] ?
33.9

Look up IC80: CC[C@H](N)C(=O)N[C@@H]1C(=O)N2C(CC[C@@H]1CNC(=O)CCC#CC#CCCC(=O)NC[C@H]1CC[C@H]3CC[C@@H](C(=O)NC(c4ccccc4)c4ccccc4)N3C(=O)[C@H]1NC(=O)[C@@H](N)CC)CC[C@H]2C(=O)NC(c1ccccc1)c1ccccc1 (stereo partly drawn) [Compound 46a]
0.17

====

Test system: KMS26 cell line
protocolText: Standalone cytotoxicity, WST-1 colorimetric assay, KMS26
Assay type: cell-based
appliedConditions: Homo sapiens, KMS-26; KMS26, 48 hrs
testReadout: pIC50
Field pIC50 (float): negative decimal logarithm of the concentration in molar.

Find the measured pIC50: item CC[C@H](N)C(=O)N[C@@H]1C(=O)N2[C@@H](CC[C@@H]1CN)CC[C@H]2C(=O)NC(c1ccccc1)c1ccccc1 [Compound 26a] , target or system KMS26 cell line.
11.70

Origin of measurements: patent US8609685B2
